# reported activation at 10 µM; entries follow
# assayed.system: Drosophila OR85b (Drosophila melanogaster)
# Construct: expressed in transfected cells
# assay.overview: Calcium ion fluorescence (GCaMP6) assay, OR85b stable HEK293 cell line
# Assay type: cell-based
# experimental.context: HEK293, read-out: OR85b Average response (VUAA1-normalized)
# Description: These VUAA1 normalized ∆F values were used to compare the different receptors and ligands. The concentration-dependent effect of the reference ligands on their cognate cell lines was examined in more detail. Twelve different ligand concentrations were measured on each cell line in an overall 0.01 μM to 100 μM concentration range with 5 repetitions with three technical replicates each time. […]
property.measured: activation at 10 µM (%)

[
  {
    "compound": "CCCCCC(C)O (centres unmarked) [2-heptanol]",
    "recorded.number": 5
  },
  {
    "compound": "Cc1ccc(C)c(C)c1 [1,2,4-trimethylbenzene]",
    "recorded.number": 7
  },
  {
    "compound": "CCCCCCCCCCC [undecane]",
    "recorded.number": 5
  },
  {
    "compound": "COC(=O)c1ccccc1O [methyl salicylate]",
    "recorded.number": 3
  },
  {
    "compound": "Cc1ccccc1 [toluene]",
    "recorded.number": 7
  },
  {
    "compound": "CC1=CCC23CC1C(C)(C)C2CCC3C (stereo not drawn) [α-funebrene]",
    "recorded.number": 0
  },
  {
    "compound": "CCCCCC(C)=O [2-heptanone]",
    "recorded.number": 20
  },
  {
    "compound": "CCCCCOC(C)=O [pentyl acetate]",
    "recorded.number": 4
  }
]

###

# assayed.system: Drosophila OR47a (Drosophila melanogaster)
# Construct: expressed in transfected cells
# Sequence (P81921 whole entry, one chain of several): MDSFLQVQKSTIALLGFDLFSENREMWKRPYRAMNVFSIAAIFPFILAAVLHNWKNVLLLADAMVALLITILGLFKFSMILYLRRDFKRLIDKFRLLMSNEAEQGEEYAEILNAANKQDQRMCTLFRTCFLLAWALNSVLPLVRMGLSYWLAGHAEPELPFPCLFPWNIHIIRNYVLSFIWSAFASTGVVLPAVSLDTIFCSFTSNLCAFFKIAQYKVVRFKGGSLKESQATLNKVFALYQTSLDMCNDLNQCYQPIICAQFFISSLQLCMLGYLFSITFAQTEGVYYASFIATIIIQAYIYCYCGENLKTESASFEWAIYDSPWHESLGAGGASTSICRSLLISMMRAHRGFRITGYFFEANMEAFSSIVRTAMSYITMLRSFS
# assay.overview: Calcium ion fluorescence (GCaMP6) assay, OR47a stable HEK293 cell line
# Assay type: cell-based
# experimental.context: HEK293, read-out: OR47a Average response (VUAA1-normalized)
property.measured: activation at 1 µM (%)

[
  {
    "molecule": "CCCOC(C)=O [propyl acetate]",
    "property.measured": "activation at 1 µM",
    "recorded.number": 0
  },
  {
    "molecule": "CC/C=C\\CCOC(C)=O [z3-hexenyl acetate]",
    "property.measured": "activation at 1 µM",
    "recorded.number": 35
  },
  {
    "molecule": "CCCCCOC(C)=O [pentyl acetate]",
    "property.measured": "activation at 1 µM",
    "recorded.number": 41
  },
  {
    "molecule": "CCCCCC(=O)CC",
    "property.measured": "activation at 1 µM",
    "recorded.number": 7
  },
  {
    "molecule": "CC(=O)OCC(C)C [isobutyl acetate]",
    "property.measured": "activation at 1 µM",
    "recorded.number": 19
  },
  {
    "molecule": "C=CC(O)CCCCC (stereo not drawn)",
    "property.measured": "activation at 1 µM",
    "recorded.number": 0
  }
]

###

# assayed.system: Drosophila OR85b (Drosophila melanogaster, UniProt Q9VHQ7)
# Construct: expressed in transfected cells
# Sequence (Q9VHQ7 whole entry, one chain of several): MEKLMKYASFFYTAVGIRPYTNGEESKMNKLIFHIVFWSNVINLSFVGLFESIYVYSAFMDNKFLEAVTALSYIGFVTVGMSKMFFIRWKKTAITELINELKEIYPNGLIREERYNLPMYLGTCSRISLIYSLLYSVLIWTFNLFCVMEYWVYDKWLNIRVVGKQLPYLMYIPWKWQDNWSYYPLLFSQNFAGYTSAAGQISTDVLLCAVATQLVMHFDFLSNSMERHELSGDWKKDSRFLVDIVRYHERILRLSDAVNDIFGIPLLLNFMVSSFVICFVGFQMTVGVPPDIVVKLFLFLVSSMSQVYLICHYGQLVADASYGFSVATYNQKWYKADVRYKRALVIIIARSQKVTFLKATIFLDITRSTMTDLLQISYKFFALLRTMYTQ
# assay.overview: Calcium ion fluorescence (GCaMP6) assay, OR85b stable HEK293 cell line
# Format: cell-based
# experimental.context: OR85b cell line; cc. 10 µM; VUAA1-normalized response, mean of biological replicates
Each entry below lists one item and its recorded Average response value.
property.measured: Average response

[
  {
    "compound": "CCCC(=O)OCC [ethyl butyrate]",
    "recorded.number": 0.0253
  },
  {
    "compound": "CCCCCO",
    "recorded.number": 0.00
  },
  {
    "compound": "CC/C=C\\CCOC(C)=O [z3-hexenyl acetate]",
    "recorded.number": 0.00
  },
  {
    "compound": "CCCCCOC(C)=O [pentyl acetate]",
    "recorded.number": 0.04
  },
  {
    "compound": "CCCCCC(=O)CC",
    "recorded.number": 0.00
  },
  {
    "compound": "CCCCCCCCC=O",
    "recorded.number": 0.00
  },
  {
    "compound": "CCCCCC(C)O (stereo not drawn)",
    "recorded.number": 0.05
  },
  {
    "compound": "C=C1CC[C@H]2O[C@]2(C)CC[C@@H]2[C@@H]1CC2(C)C [(-)-caryophyllene oxide]",
    "recorded.number": 0.00
  },
  {
    "compound": "CCCCCC(C)=O",
    "recorded.number": 0.20
  },
  {
    "compound": "C=CC(O)CCCCC (stereo not drawn)",
    "recorded.number": 0.0043
  },
  {
    "compound": "CCc1ccccc1",
    "recorded.number": 0.00
  },
  {
    "compound": "C=C(C)C1CCC2(C)OC2C1 (single isomer, unassigned; (+)) [(+)-limonene oxide]",
    "recorded.number": 0.00
  }
]

###

# assayed.system: Drosophila OR71a (Drosophila melanogaster, UniProt Q9VUK5)
# Construct: expressed in transfected cells
# Sequence (Q9VUK5 1-378): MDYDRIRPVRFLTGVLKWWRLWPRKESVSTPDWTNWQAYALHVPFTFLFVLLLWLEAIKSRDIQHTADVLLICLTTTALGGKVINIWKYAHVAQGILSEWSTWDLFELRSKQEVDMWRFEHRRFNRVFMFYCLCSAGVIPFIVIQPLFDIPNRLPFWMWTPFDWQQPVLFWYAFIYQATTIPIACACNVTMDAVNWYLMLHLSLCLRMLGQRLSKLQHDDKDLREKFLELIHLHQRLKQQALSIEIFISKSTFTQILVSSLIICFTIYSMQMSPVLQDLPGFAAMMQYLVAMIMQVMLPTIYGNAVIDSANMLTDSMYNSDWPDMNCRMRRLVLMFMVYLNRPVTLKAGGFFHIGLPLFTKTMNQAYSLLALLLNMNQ
# Sequence (Q9VNB5 1-486 partner): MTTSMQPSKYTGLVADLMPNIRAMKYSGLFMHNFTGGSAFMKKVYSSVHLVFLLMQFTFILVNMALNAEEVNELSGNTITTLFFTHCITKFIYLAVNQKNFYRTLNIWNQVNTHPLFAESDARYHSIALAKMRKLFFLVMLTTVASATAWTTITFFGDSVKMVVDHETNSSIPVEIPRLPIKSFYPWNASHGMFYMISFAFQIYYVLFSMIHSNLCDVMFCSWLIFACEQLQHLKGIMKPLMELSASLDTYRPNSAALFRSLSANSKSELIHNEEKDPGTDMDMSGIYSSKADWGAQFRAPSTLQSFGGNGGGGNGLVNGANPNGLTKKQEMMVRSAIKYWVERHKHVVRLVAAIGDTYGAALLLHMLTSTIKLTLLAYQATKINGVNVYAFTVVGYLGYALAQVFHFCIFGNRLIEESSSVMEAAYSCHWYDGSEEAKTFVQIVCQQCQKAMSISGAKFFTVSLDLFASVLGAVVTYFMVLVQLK
# assay.overview: Calcium ion fluorescence (GCaMP6) assay, OR71a stable HEK293 cell line
# Format: cell-based
# experimental.context: HEK293, read-out: OR71a response (VUAA1-normalized response)

[
  {
    "compound": "C=CCc1ccc(O)c(OC)c1 [eugenol]",
    "activation at 10 µM (%)": 0
  },
  {
    "compound": "CCCCCC(C)O (stereo not drawn) [2-heptanol]",
    "activation at 10 µM (%)": 0
  },
  {
    "compound": "C=CC(O)CCCCC (stereo not drawn) [1-octen-3-ol]",
    "activation at 10 µM (%)": 0
  }
]

###

# assayed.system: Drosophila OR10a (Drosophila melanogaster, UniProt Q9VYZ1)
# Construct: expressed in transfected cells
# Sequence (Q9VYZ1 whole entry, one chain of several): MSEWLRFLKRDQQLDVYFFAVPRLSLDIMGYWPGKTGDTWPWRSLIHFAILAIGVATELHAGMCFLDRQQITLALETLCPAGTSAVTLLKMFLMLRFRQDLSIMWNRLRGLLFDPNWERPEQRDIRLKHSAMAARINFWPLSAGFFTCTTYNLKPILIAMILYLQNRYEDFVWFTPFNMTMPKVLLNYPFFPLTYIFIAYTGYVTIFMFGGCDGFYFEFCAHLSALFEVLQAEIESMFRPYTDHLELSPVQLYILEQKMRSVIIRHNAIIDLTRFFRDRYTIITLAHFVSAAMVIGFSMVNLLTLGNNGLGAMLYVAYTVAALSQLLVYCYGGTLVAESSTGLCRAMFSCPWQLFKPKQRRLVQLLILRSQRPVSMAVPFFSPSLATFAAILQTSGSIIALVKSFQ
# assay.overview: Calcium ion fluorescence (GCaMP6) assay, OR10a stable HEK293 cell line
# Type: cell-based
# experimental.context: HEK293, read-out: OR10a Average response (VUAA1-normalized), 100 μM VOC; 50 μM VUAA1 = 1; responses not exceeding 0.05 considered 0
Below is a list of entries, each paired with its recorded activation at 100 µM value.

[
  {
    "compound": "C=C1CCC2CC1C2(C)C (stereo not shown)",
    "assayed.system": "Drosophila OR10a (Drosophila melanogaster, UniProt Q9VYZ1)",
    "activation at 100 µM": "9%"
  },
  {
    "compound": "CC1=CCC2C(C1)C2(C)C (stereo not shown)",
    "assayed.system": "Drosophila OR10a (Drosophila melanogaster, UniProt Q9VYZ1)",
    "activation at 100 µM": "0%"
  },
  {
    "compound": "C=C1CC[C@H]2O[C@]2(C)CC[C@@H]2[C@@H]1CC2(C)C [(-)-caryophyllene oxide]",
    "assayed.system": "Drosophila OR10a (Drosophila melanogaster, UniProt Q9VYZ1)",
    "activation at 100 µM": "0%"
  },
  {
    "compound": "CC1=CCC2CC1C2(C)C (stereo not shown)",
    "assayed.system": "Drosophila OR10a (Drosophila melanogaster, UniProt Q9VYZ1)",
    "activation at 100 µM": "7.44%"
  },
  {
    "compound": "CCOC(=O)c1ccccc1 [ethyl benzoate]",
    "assayed.system": "Drosophila OR10a (Drosophila melanogaster, UniProt Q9VYZ1)",
    "activation at 100 µM": "49%"
  },
  {
    "compound": "C=C1CCC2(C(C)C)CC12 (stereo not shown)",
    "assayed.system": "Drosophila OR10a (Drosophila melanogaster, UniProt Q9VYZ1)",
    "activation at 100 µM": "3.23%"
  },
  {
    "compound": "CCCCOC(C)=O [butyl acetate]",
    "assayed.system": "Drosophila OR10a (Drosophila melanogaster, UniProt Q9VYZ1)",
    "activation at 100 µM": "5%"
  },
  {
    "compound": "Cc1ccc(C)cc1",
    "assayed.system": "Drosophila OR10a (Drosophila melanogaster, UniProt Q9VYZ1)",
    "activation at 100 µM": "6.41%"
  },
  {
    "compound": "CC1=CC[C@@H](C(C)(C)O)CC1",
    "assayed.system": "Drosophila OR10a (Drosophila melanogaster, UniProt Q9VYZ1)",
    "activation at 100 µM": "0%"
  },
  {
    "compound": "CC(=O)OCC(C)C [isobutyl acetate]",
    "assayed.system": "Drosophila OR10a (Drosophila melanogaster, UniProt Q9VYZ1)",
    "activation at 100 µM": "18%"
  },
  {
    "compound": "Cc1ccccc1",
    "assayed.system": "Drosophila OR10a (Drosophila melanogaster, UniProt Q9VYZ1)",
    "activation at 100 µM": "7%"
  },
  {
    "compound": "Cc1ccc(C(C)C)cc1",
    "assayed.system": "Drosophila OR10a (Drosophila melanogaster, UniProt Q9VYZ1)",
    "activation at 100 µM": "0%"
  },
  {
    "compound": "C=Cc1ccccc1",
    "assayed.system": "Drosophila OR10a (Drosophila melanogaster, UniProt Q9VYZ1)",
    "activation at 100 µM": "14%"
  }
]
